# system name: human MOR (Homo sapiens)
# Sequence (P35372 whole entry): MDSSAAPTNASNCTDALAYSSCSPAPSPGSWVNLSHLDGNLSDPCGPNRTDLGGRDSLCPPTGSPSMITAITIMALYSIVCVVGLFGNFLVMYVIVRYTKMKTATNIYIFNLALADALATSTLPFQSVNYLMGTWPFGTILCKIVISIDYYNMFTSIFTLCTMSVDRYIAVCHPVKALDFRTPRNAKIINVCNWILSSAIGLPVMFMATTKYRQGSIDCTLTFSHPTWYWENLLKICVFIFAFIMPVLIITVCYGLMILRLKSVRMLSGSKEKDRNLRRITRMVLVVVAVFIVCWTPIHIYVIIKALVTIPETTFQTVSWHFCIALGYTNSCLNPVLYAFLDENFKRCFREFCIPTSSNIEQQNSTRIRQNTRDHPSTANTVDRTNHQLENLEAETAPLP
The threshold is 5 nM. Values of Ki beneath it are tagged Met; values meeting or exceeding it are tagged Not met.

Recorded results for 7 compounds are shown here.
INSERT INTO assay_data (molecular_string, class) VALUES
  ('Cc1cc(O)cc(C)c1C[C@H](N)C(=O)N1CCc2ccc(Cc3cccc4cnccc34)cc2C1', 'Not met'),
  ('Cc1cc(O)cc(C)c1C[C@H](N)C(=O)N1CCc2ccc(Cc3ccncc3)cc2C1', 'Not met'),
  ('Cc1cc(O)cc(C)c1C[C@H](N)C(=O)N1CCc2ccc(Cc3cccc4ncccc34)cc2C1', 'Met'),
  ('Cc1cc(O)cc(C)c1C[C@H](N)C(=O)N1CCc2ccc(Cc3cccc4ccccc34)cc2C1', 'Not met'),
  ('Cc1cc(O)cc(C)c1C[C@H](N)C(=O)N1CCc2ccc(Cc3ccccc3C#N)cc2C1', 'Not met'),
  ('Cc1cc(O)cc(C)c1C[C@H](N)C(=O)N1CCc2ccc(Cc3cccc(O)c3)cc2C1', 'Met'),
  ('Cc1cc(O)cc(C)c1C[C@H](N)C(=O)N1CCc2ccc(Cc3cccc(C(F)(F)F)c3)cc2C1', 'Met');

Bench note: check whether `COc1ccccc1Cc1ccc2c(c1)CN(C(=O)[C@@H](N)Cc1c(C)cc(O)cc1C)CC2` shows Ki below 5 nM Met
